We begin with a simple list: items and their reported IC90.
test system: HIV-1 (RF) in MT-2 cells; assay: microbe, parasite or virus in culture; type: cell-based; conditions: Human immunodeficiency virus 1, MT2, 24 h, Table 1d, upper part; read-out: IC90
Value kind: IC90

[[record]]
compound = "C=CCN1C(=O)N(CCCC)C(Cc2ccccc2)C2OC(=O)OC2C1Cc1ccccc1 (stereo not drawn)"
value = "< 10 µg/mL"

[[record]]
compound = "O=C1N(Cc2ccc3ccccc3c2)C(Cc2ccccc2)C2OS(=O)OC2C(Cc2ccccc2)N1Cc1ccc2ccccc2c1 (stereo not drawn)"
value = "< 10 µg/mL"

[[record]]
compound = "O=C1N(CC2CC2)[C@H](Cc2ccccc2)C[C@@H](O)[C@@H](Cc2ccccc2)N1CC1CC1"
value = "< 10 µg/mL"


###

molecular target: single-chain tethered dimer of HIV protease (Human immunodeficiency virus 1, UniProt P04585); assay: biochemical; type: biochemical; set-up: fused on or other part: A second copy of the same protease unit is joined to the first by a short peptide tether, giving one polypeptide; conditions: read-out: HPLC K1; Table 2d; class symbols
pKi: −log10 of the molar value.
Value kind: pKi

[[record]]
molecule = "O=C1N(CCCCCCO)C(Cc2ccccc2)C(O)C(O)C(Cc2ccccc2)N1CC1CC1 (stereo not drawn) [Example 12E]"
value = "> 8.00"

[[record]]
molecule = "O=C1NC(Cc2ccccc2)C(O)C(O)C(Cc2ccccc2)N1Cc1cccc(CO)c1 (stereo not drawn) [15WI]"
value = "> 8.00"

[[record]]
molecule = "NCCCCCCN1C(=O)N(CCCCCCN)C(Cc2ccccc2)C(O)C(O)C1Cc1ccccc1 (stereo not drawn) [Example 12A]"
value = "< 6.00"


###

Catalogue of melting point readings, one per entry.
Value kind: melting point

[[record]]
compound = "C=CCN1C(=NC#N)N(CC=C)C(Cc2ccccc2)C(O)C(O)C1Cc1ccccc1 (centres unmarked)"
value = "70.2 °C"

[[record]]
compound = "CCN(CC)C(=O)c1cccc(CN2C(=O)N(Cc3cccc(CO)c3)C(Cc3ccccc3)C(O)C(O)C2Cc2ccccc2)c1 (centres unmarked) [15WJ]"
value = "88.9 to 90 °C"

[[record]]
compound = "NC(=NO)c1cccc(CN2C(=O)N(CC3CC3)C(Cc3ccccc3)C(O)C(O)C2Cc2ccccc2)c1 (centres unmarked) [15AF]"
value = "183 to 186 °C"

[[record]]
compound = "C=CCOc1cccc(CN2C(=O)N(Cc3cccc(OCC=C)c3)C(Cc3ccccc3)C(O)C(O)C2Cc2ccccc2)c1 (centres unmarked)"
value = "170 to 172 °C"

[[record]]
compound = "O=C1N(Cc2cccc(OCCO)c2)C(Cc2ccccc2)C(O)C(O)C(Cc2ccccc2)N1Cc1cccc(OCCO)c1 (centres unmarked) (hydrate or solvate) [10Y]"
value = "245 to 247 °C"

[[record]]
compound = "O=C1NC(Cc2ccccc2)C(O)C(O)C(Cc2ccccc2)N1Cc1ccc(CO)cc1 (centres unmarked) [Example 11N]"
value = "112 to 114 °C"

[[record]]
compound = "O=C1N(Cc2cccc(OCCN3CCOCC3)c2)C(Cc2ccccc2)C(O)C(O)C(Cc2ccccc2)N1Cc1cccc(OCCN2CCOCC2)c1 (centres unmarked) [Example 15YG]"
value = "110 to 112 °C"

[[record]]
compound = "CCN1C(=O)N(Cc2ccccc2)C(Cc2ccccc2)C(O)C(O)C1Cc1ccccc1 (centres unmarked)"
value = "190 to 193 °C"

[[record]]
compound = "O=C1N(Cc2cc(Cl)cc(Cl)c2)C(Cc2ccccc2)C(O)C(O)C(Cc2ccccc2)N1Cc1cc(Cl)cc(Cl)c1 (centres unmarked)"
value = "231.1 °C"

[[record]]
compound = "CN1C(=O)N(Cc2ccccc2)C(Cc2ccccc2)C(O)C(O)C1Cc1ccccc1 (centres unmarked)"
value = "81 °C"

[[record]]
compound = "O=C1N(Cc2cccc(CO)c2)C(Cc2ccccc2)C(O)C(O)C(Cc2ccccc2)N1Cc1cccc(CO)c1 (centres unmarked)"
value = "94 to 95 °C"


###

Value kind: melting point

[[record]]
compound = "O=C1N(Cc2cccc(OCc3ccccc3)c2)C(Cc2ccccc2)C(O)C(O)C(Cc2ccccc2)N1Cc1cccc([N+](=O)[O-])c1 (stereo not drawn) (hydrate or solvate) [11P]"
value_kind = "melting point"
value = "173 to 176 °C"

[[record]]
compound = "CONC(=O)c1ccc(CN2C(=O)N(Cc3ccc(C(=O)NOC)cc3)C(Cc3ccccc3)C(O)C(O)C2Cc2ccccc2)cc1 (stereo not drawn) [10S]"
value_kind = "melting point"
value = "186 to 189 °C"

[[record]]
compound = "CONC(=O)c1cccc(CN2C(=O)N(Cc3cccc(C(=O)NOC)c3)C(Cc3ccccc3)C(O)C(O)C2Cc2ccccc2)c1 (stereo not drawn) [10R]"
value_kind = "melting point"
value = "150 to 158 °C"


###

biological target: single-chain tethered dimer of HIV protease (Human immunodeficiency virus 1, UniProt P04585); assay: biochemical; format: biochemical; set-up: fused on or other part: A second copy of the same protease unit is joined to the first by a short peptide tether, giving one polypeptide; details: read-out: HPLC K1; Table 2d; class symbols
Value kind: Ki

[[record]]
compound = "NNC(=O)c1cccc(CN2C(=O)N(Cc3cccc(C(=O)NN)c3)C(Cc3ccccc3)C(O)C(O)C2Cc2ccccc2)c1 (centres unmarked) [Example 10M]"
value = "< 10 nM"

[[record]]
compound = "O=C1N(CCCCCO)C(Cc2ccccc2)C(O)C(O)C(Cc2ccccc2)N1Cc1ccccc1 (centres unmarked) [Example 15VI]"
value = "< 10 nM"

[[record]]
compound = "O=C1N(Cc2ccccc2)C(Cc2ccccc2)C(O)C(O)C(Cc2ccccc2)N1Cc1ccccc1 (centres unmarked) [Example 13L]"
value = "< 10 nM"

[[record]]
compound = "CCC(=O)CN1C(=O)N(CC(=O)CC)C(Cc2ccccc2)C(O)C(O)C1Cc1ccccc1 (centres unmarked) [Example 15VO]"
value = "10 to 1000 nM"

[[record]]
compound = "NCCCCCCN1C(=O)N(Cc2ccccc2)C(Cc2ccccc2)C(O)C(O)C1Cc1ccccc1 (centres unmarked) [Example 12B]"
value = "10 to 1000 nM"


Data origin: patent USRE37781E1
